Origin of the recorded values: patent US20130251724A1

Entries and their Kd
target: T1, Human OSM (human, UniProt P13725 26-221)
T1 construct: Recombinant human OSM; also called hOSM; human Oncostatin M
T1 sequence: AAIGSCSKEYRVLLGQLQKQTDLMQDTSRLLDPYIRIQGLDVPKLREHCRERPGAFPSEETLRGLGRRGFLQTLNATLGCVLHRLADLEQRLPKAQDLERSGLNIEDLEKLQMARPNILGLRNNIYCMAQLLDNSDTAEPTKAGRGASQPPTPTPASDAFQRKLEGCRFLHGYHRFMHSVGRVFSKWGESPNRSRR
protocol_details: SPR (ProteOn XPR36 or Biacore T100), captured supernatant, OSM as analyte
Procedure: The initial kinetic analyses for the CDRH3 screen were carried out on the ProteOn XPR36 (Biorad Laboratories) and certain supernatants were selected for more accurate kinetic analysis on the BiaCore T100. For the ProteOn analysis, anti-human IgG (GE Healthcare/Biacore BR-1008-39) was coupled to a GLM chip (Biorad Laboratories 176-5012) by primary amine coupling. […]
Quick reminder: number only, in nM, skip the unit.

// query Query (binder): Pos 97 Ala (antibody, V domains shown, also called CDRH3 G97>A) VH: EVQLVESGGGLVQPGGSLRLSCAASGFTFSSYAMSWVRQAPGKGLEWVATISDGGSFTYYLDNVRGRFTISRDNAKNSLYLQMNSLRAEDTAVYYCARDVAHTTFWYFDVWGRGTLVTVSS VL: DIVMTQSPDSLAVSLGERATINCRASKSVSAAGYNFMHWYQQKPGQPPKVLIYYASNLESGVPDRFSGSGSGTDFTLTISSLQAEDVAVYYCLHSREFPFTFGGGTKVEIKR ; field requested: Kd
// result 0.486

// query Which Kd value is on record for Pos 99 Ala (antibody, V domains shown, also called CDRH3 T99>A) VH: EVQLVESGGGLVQPGGSLRLSCAASGFTFSSYAMSWVRQAPGKGLEWVATISDGGSFTYYLDNVRGRFTISRDNAKNSLYLQMNSLRAEDTAVYYCARDVGHATFWYFDVWGRGTLVTVSS VL: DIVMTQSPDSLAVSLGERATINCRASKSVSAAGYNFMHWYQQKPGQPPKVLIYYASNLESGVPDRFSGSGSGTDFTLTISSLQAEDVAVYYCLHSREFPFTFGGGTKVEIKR ?
// result 0.541

// query Look at this binder and give its reported Kd. Pos 100C Glu (antibody, V domains shown, also called CDRH3 Y100C>E) VH: EVQLVESGGGLVQPGGSLRLSCAASGFTFSSYAMSWVRQAPGKGLEWVATISDGGSFTYYLDNVRGRFTISRDNAKNSLYLQMNSLRAEDTAVYYCARDVGHTTFWEFDVWGRGTLVTVSS VL: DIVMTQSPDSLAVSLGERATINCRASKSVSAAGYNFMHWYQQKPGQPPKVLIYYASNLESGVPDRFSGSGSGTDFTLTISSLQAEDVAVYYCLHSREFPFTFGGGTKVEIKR
// result 0.482

// query Which Kd reading was recorded for the binder Pos 98 Gly (antibody, V domains shown, also called CDRH3 H98>G) VH: EVQLVESGGGLVQPGGSLRLSCAASGFTFSSYAMSWVRQAPGKGLEWVATISDGGSFTYYLDNVRGRFTISRDNAKNSLYLQMNSLRAEDTAVYYCARDVGGTTFWYFDVWGRGTLVTVSS VL: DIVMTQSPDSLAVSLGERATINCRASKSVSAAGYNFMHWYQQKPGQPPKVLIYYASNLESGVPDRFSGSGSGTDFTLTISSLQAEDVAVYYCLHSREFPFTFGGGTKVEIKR ?
// result 1.11

// query # input binder: Pos 102 Gly (antibody, V domains shown, also called CDRH3 V102>G) VH: EVQLVESGGGLVQPGGSLRLSCAASGFTFSSYAMSWVRQAPGKGLEWVATISDGGSFTYYLDNVRGRFTISRDNAKNSLYLQMNSLRAEDTAVYYCARDVGHTTFWYFDGWGRGTLVTVSS VL: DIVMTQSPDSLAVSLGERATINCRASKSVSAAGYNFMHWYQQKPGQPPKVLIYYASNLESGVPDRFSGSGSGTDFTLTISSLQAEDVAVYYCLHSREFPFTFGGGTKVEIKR ; wanted: its Kd
// result 0.406
